Listing of recorded drug sensitivity score by entry.
System: Caco-2
Assay: drug sensitivity score (DSS) for viability; higher = more toxic; extreme values may be limits of the assay
Conditions: 72 h
PARAMETER MEASURED: drug sensitivity score

CN1[C@@H]2CC[C@H]1C[C@@H](OC1c3ccccc3CCc3ccccc31)C2: 0.3
O=C(c1ccc(F)c(F)c1Nc1ccc(I)cc1F)N1CC(O)([C@@H]2CCCCN2)C1: 8.3
COc1cc2c3cc1Oc1cc(ccc1O)C[C@@H]1c4c(cc(OC)c(O)c4Oc4ccc(cc4)C[C@@H]3N(C)CC2)CC[N+]1(C)C: 0

###

Tested on: Calu-3
Assay: drug sensitivity score (DSS) for viability; higher = more toxic; extreme values may be limits of the assay
Conditions: 72 h
// values below are reported drug sensitivity score
PARAMETER MEASURED: drug sensitivity score

NCCCC[C@H](N)C(=O)O: 0
Cc1cc(C)c(S(=O)(=O)Nc2cccc(C(F)(F)F)c2)c(C)c1: 0
c1ccc2[nH]c(-c3cscn3)nc2c1: 0
O=C(Nc1ccccc1)N1CCC(Cc2cnc3ccccc3c2)CC1: 0
CCOC(=O)N1c2ccc(C(F)(F)F)cc2[C@@H](N(Cc2cc(C(F)(F)F)cc(C(F)(F)F)c2)C(=O)OC)C[C@H]1CC: 2.8

###

System: Calu-3
Assay: cell viability relative to DMSO; higher = less toxic
Conditions: 72 h; 10000 nM
PARAMETER MEASURED: cell viability (%)

Nc1ncnc2c1ncn2[C@@H]1O[C@H](COP(=O)(O)O)[C@@H](O)[C@H]1O [adenosine-phosphate]: 89.6
COc1ccccc1N1CCN(CCN(C(=O)C2CCCCC2)c2ccccn2)CC1: 84.3
CC(C)N[C@H]1CCn2c(=O)[nH]c3cccc(c32)[C@@H]1O: 97.5
C[C@@H]1CN(Cc2ncccn2)C[C@H]1c1nc2c(cnn2C2CCOCC2)c(=O)[nH]1: 93.7
C[N+]1(CCCCC[N+]2(C)CCCC2)CCCC1: 88.1
Cc1cc(Nc2cc(CN3CCOCC3)c3nc(C)c(Cc4ccc(Cl)cc4F)n3n2)n[nH]1: 50.6
O=C1NC(=O)c2cc(Nc3ccc(F)cc3)c(Nc3ccc(F)cc3)cc21: 77.8
CNCc1ccc(C)c(NC(=O)c2ccc(Nc3nc(-c4ccccc4)c4ccccc4n3)cc2)c1: 4.1
OCCN1CCN(CC/C=C2/c3ccccc3Sc3ccc(C(F)(F)F)cc32)CC1: 87
CNC(=O)CN(CCN(CCN(CC(=O)[O-])CC(=O)NC)CC(=O)[O-])CC(=O)[O-].[Gd+3] [gadodiamide]: 108
C[C@@H]1CCC[C@H](C)N1NC(=O)c1ccc(Cl)c(S(N)(=O)=O)c1 [clopamide]: 95.1
O=C1OCCN1/N=C/c1ccc([N+](=O)[O-])o1: 110
O=C(O)[C@H]1CN(C/C=C/P(=O)(O)O)CCN1: 97.4
NC(=O)c1cccc2cn(-c3ccc([C@@H]4CCCNC4)cc3)nc12: 97.6
NC1=NCC2c3ccccc3Cc3ccccc3N12 (stereo not drawn) [epinastine]: 92
CC(C)NC(=O)c1ccc(C#Cc2ccncc2)cn1: 114
O=C1OC(OC(=O)c2cccnc2Nc2cccc(C(F)(F)F)c2)c2ccccc21 (stereo not drawn) [talniflumate]: 101
CCC(COC(=O)c1cc(OC)c(OC)c(OC)c1)(c1ccccc1)N(C)C (stereo not drawn): 100
